# EXPERIMENTAL TARGET: mouse TMEM16A mutant G510P (Mus musculus, UniProt Q8BHY3, G510P)
# Construct: expressed in transfected cells; host or cells: HEK293T
# ASSAY METHOD TEXT: Inside-out patch recording of 1PBC block, mutant G510P
# Format: cell-based
# EXPERIMENTAL PARAMETERS: 100 mV; 15 µM Ca2+
pIC50: −log10 of the molar value.
PARAMETER MEASURED: pIC50

>>> df
                                   molecule  recorded_number
0  N#Cc1c(C(F)(F)F)cc(O)n2c1nc1ccccc12 [1PBC]             4.23

----------
# EXPERIMENTAL TARGET: mouse TMEM16A mutant V543A (Mus musculus, UniProt Q8BHY3, V543A)
# Construct: expressed in transfected cells; host or cells: HEK293T
# ASSAY METHOD TEXT: Inside-out patch recording of 1PBC block, mutant V543A
# Assay type: cell-based
# EXPERIMENTAL PARAMETERS: V543A; V -140 mV
pIC50: −log10 of the molar value.
PARAMETER MEASURED: pIC50

                          query_smiles  recorded_number
0  N#Cc1c(C(F)(F)F)cc(O)n2c1nc1ccccc12             4.46

----------
# EXPERIMENTAL TARGET: mouse TMEM16A mutant P595A (Mus musculus, UniProt Q8BHY3, P595A)
# Construct: expressed in transfected cells; host or cells: HEK293T
# ASSAY METHOD TEXT: Inside-out patch recording of 1PBC block, mutant P595A
# Assay type: cell-based
# EXPERIMENTAL PARAMETERS: 20 mV; 2 µM Ca2+
# Procedure: HEK293T cells (ATCC CRL-1573) were maintained in Dulbecco’s modified Eagle’s medium (DMEM; Sigma-Aldrich) supplemented with 10 U ml^−1 penicillin, 0.1 mg ml^−1 streptomycin (Sigma-Aldrich), 2 mM L-glutamine (Sigma-Aldrich), and 10% FBS (Sigma-Aldrich) in a humidified atmosphere containing 5% CO2 at 37 °C. […]
pIC50: −log10 of the molar value.
PARAMETER MEASURED: pIC50

In [3]: df
Out[3]:
                                   compound  parameter_measured  recorded_number
0  N#Cc1c(C(F)(F)F)cc(O)n2c1nc1ccccc12 [1PBC]               pIC50             5.61

----------
# EXPERIMENTAL TARGET: mouse TMEM16A mutant R515A (Mus musculus, UniProt Q8BHY3, R515A)
# Construct: expressed in transfected cells; host or cells: HEK293T
# Sequence (Q8BHY3 1-960 R515A): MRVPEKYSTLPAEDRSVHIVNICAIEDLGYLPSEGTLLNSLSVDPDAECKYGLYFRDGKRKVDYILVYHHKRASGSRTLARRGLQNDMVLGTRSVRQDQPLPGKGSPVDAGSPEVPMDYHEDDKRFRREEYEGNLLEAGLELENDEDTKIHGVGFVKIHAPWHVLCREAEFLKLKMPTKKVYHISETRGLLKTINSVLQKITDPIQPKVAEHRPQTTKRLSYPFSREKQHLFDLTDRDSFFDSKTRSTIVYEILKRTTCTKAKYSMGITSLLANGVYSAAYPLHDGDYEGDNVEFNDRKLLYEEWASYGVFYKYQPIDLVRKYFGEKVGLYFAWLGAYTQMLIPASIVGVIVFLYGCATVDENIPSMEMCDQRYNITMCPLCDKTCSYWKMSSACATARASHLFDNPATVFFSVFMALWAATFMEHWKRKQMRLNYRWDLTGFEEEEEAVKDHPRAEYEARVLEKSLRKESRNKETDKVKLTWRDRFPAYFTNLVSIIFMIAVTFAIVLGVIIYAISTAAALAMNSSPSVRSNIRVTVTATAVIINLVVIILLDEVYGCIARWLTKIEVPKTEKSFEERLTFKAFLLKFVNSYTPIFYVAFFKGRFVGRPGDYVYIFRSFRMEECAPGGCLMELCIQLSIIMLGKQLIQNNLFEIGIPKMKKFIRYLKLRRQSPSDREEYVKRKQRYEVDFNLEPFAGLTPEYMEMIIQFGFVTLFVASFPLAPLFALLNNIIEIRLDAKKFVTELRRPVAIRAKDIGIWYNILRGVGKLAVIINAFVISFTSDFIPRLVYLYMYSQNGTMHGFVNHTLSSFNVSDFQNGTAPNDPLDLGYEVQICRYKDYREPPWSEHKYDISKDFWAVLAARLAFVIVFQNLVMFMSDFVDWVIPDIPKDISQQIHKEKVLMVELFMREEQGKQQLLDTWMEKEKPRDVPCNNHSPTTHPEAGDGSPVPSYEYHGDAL
# ASSAY METHOD TEXT: Inside-out patch recording of 1PBC block, mutant R515A
# Assay type: cell-based
# EXPERIMENTAL PARAMETERS: 80 mV; 4 µM Ca2+
pIC50: −log10 of the molar value.
PARAMETER MEASURED: pIC50

In [3]: df
Out[3]:
                          query_smiles  parameter_measured  recorded_number
0  N#Cc1c(C(F)(F)F)cc(O)n2c1nc1ccccc12               pIC50             4.04

----------
# EXPERIMENTAL TARGET: mouse TMEM16A mutant Q637A (Mus musculus, UniProt Q8BHY3, Q637A)
# Construct: expressed in transfected cells; host or cells: HEK293T
# ASSAY METHOD TEXT: Inside-out patch recording of 1PBC block, mutant Q637A
# Format: cell-based
# EXPERIMENTAL PARAMETERS: Q637A; V -140 mV
PARAMETER MEASURED: IC50 (µM)

                          query_smiles  recorded_number
0  N#Cc1c(C(F)(F)F)cc(O)n2c1nc1ccccc12             10.2

----------
# EXPERIMENTAL TARGET: mouse TMEM16A mutant P595A (Mus musculus, UniProt Q8BHY3, P595A)
# Construct: expressed in transfected cells; host or cells: HEK293T
# Sequence (Q8BHY3 1-960 P595A): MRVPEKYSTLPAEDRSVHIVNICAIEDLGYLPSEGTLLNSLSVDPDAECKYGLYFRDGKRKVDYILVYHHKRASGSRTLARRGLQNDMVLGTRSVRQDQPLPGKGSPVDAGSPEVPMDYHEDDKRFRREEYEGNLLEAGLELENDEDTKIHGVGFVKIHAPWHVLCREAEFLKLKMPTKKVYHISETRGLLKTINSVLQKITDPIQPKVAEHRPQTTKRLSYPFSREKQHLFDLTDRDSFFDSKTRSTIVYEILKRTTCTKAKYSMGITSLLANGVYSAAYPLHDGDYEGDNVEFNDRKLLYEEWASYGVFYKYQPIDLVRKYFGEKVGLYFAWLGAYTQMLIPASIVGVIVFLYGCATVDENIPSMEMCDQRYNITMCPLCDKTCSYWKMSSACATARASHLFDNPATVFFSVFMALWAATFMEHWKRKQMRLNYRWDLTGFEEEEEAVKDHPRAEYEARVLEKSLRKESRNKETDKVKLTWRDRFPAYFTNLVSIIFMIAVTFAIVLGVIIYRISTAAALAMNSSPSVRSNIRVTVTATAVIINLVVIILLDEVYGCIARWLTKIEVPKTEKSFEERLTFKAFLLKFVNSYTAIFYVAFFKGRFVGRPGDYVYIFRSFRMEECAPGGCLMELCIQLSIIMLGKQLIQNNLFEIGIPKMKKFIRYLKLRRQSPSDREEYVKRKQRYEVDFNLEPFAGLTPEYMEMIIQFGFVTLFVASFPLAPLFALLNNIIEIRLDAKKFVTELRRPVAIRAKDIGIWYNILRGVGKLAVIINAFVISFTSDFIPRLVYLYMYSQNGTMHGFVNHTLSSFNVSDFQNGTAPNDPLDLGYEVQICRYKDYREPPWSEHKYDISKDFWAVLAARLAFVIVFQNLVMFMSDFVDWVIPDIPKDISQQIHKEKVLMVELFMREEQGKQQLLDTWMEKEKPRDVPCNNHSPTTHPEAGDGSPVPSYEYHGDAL
# ASSAY METHOD TEXT: Inside-out patch recording of 1PBC block, mutant P595A
# Format: cell-based
# EXPERIMENTAL PARAMETERS: P595A; V 20 mV
pIC50: −log10 of the molar value.
PARAMETER MEASURED: pIC50

                          query_smiles  recorded_number
0  N#Cc1c(C(F)(F)F)cc(O)n2c1nc1ccccc12             5.61

----------
# EXPERIMENTAL TARGET: mouse TMEM16A mutant P595A (Mus musculus, UniProt Q8BHY3, P595A)
# Construct: expressed in transfected cells; host or cells: HEK293T
# Sequence (Q8BHY3 1-960 P595A): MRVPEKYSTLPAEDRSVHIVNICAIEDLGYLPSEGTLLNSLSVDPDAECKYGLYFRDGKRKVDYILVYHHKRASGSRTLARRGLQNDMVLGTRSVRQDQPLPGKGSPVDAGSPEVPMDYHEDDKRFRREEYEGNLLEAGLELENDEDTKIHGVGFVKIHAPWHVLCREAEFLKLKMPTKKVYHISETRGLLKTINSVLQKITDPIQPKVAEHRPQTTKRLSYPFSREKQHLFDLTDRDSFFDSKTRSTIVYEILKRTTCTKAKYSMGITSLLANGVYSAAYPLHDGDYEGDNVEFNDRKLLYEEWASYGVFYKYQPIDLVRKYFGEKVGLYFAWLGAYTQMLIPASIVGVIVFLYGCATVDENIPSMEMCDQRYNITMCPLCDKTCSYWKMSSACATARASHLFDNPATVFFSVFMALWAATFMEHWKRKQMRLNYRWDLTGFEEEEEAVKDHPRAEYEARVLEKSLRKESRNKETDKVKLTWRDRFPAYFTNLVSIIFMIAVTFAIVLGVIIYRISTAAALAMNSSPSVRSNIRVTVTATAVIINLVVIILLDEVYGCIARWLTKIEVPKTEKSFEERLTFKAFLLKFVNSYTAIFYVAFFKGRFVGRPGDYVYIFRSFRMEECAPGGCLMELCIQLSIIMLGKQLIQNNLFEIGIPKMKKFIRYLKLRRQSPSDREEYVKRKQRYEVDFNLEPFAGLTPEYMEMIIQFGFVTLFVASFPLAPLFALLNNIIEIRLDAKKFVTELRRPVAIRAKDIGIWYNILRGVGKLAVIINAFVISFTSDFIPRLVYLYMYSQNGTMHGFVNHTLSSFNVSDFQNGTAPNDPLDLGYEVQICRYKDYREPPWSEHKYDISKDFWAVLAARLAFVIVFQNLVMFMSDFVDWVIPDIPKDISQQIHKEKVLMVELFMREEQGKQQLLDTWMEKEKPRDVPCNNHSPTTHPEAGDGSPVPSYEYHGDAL
# ASSAY METHOD TEXT: Inside-out patch recording of 1PBC block, mutant P595A
# Assay type: cell-based
# EXPERIMENTAL PARAMETERS: P595A; V -40 mV
PARAMETER MEASURED: IC50 (µM)

>>> print(df.to_string())
                          query_smiles                       experimental_target  parameter_measured  recorded_number
0  N#Cc1c(C(F)(F)F)cc(O)n2c1nc1ccccc12  mouse TMEM16A mutant P595A (Mus musculus, UniProt Q8BHY3, P595A)                IC50             4.91
